In this section, each of the compounds is paired with its reported GI50.
- Tested on: SF-295
- Protocol details: NCI tumour cell line growth inhibition, 48 h
Activity calls are given as the source filed them. Cut-off read from the data, not from the text of the source: active = GI50 up to about 1.1 µM and inactive = higher.

Please review the following examples before continuing.
[
  {
    "Compound": "COc1cc(C(O)(CC#N)c2cc3c(cc2Br)OCO3)cc(OC)c1OC (configuration not stated)",
    "Target or test system": "SF-295",
    "Result type": "GI50",
    "Result": "16.3 µM (inactive)"
  },
  {
    "Compound": "CC(C)(C)OC(=O)N[C@H]1CC(O)c2ccccc2N(CC(=O)O)C1=O (some centres not stated)",
    "Target or test system": "SF-295",
    "Result type": "GI50",
    "Result": "> 100 µM (inactive)"
  },
  {
    "Compound": "O=C(N/N=C(COc1ccccc1)\\N=C\\c1ccncc1)c1ccncc1",
    "Target or test system": "SF-295",
    "Result type": "GI50",
    "Result": "> 100 µM (inactive)"
  },
  {
    "Compound": "CCOC(=O)/C(=C/c1ccccc1)N(CC)CC",
    "Target or test system": "SF-295",
    "Result type": "GI50",
    "Result": "> 100 µM (inactive)"
  },
  {
    "Compound": "O=N/N=c1\\o[n-][n+](CCc2ccccc2)c1Cc1/c(=N/N=O)o[n-][n+]1CCc1ccccc1",
    "Target or test system": "SF-295",
    "Result type": "GI50",
    "Result": "25.6 µM (inactive)"
  },
  {
    "Compound": "O=Cc1ccc(OCc2cccc(COc3ccc(/C=N\\Nc4ccc([N+](=O)[O-])cc4[N+](=O)[O-])cc3)n2)cc1",
    "Target or test system": "SF-295",
    "Result type": "GI50",
    "Result": "> 100 µM (inactive)"
  }
]

As a next step, examine the compound that follows.
Prompt line: Find GI50 (SF-295) for the entry NNC(=O)C1(NC(=O)c2ccccc2)C(c2ccccc2)C(c2ccccc2)=NN1c1ccccc1 (configuration not stated)
Response line: 24.5 µM (inactive)

The reported measurements were obtained from ChEMBL document CHEMBL1201862.
